Assay System: Factor XIa (Homo sapiens (Human), UniProt P03951)
Sequence (P03951 388-625): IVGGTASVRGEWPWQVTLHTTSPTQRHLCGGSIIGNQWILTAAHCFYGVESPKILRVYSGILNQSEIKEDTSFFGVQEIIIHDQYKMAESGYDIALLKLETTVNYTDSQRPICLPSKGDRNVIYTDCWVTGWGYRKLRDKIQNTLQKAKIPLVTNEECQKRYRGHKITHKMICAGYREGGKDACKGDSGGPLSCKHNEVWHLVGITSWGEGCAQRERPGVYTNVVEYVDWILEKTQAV
Sequence (P03951 19-387 partner): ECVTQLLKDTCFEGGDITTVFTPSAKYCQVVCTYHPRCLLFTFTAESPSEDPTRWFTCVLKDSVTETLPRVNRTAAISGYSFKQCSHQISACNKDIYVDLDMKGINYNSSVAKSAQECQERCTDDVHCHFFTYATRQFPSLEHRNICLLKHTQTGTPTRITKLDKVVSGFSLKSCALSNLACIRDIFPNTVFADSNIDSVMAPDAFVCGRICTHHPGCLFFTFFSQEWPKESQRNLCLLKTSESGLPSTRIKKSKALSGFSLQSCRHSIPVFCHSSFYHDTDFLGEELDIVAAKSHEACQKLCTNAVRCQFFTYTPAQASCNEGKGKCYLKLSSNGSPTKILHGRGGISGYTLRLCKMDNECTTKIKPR
Test Name: Factor XIa inhibition assay (FLINT) utilizing a fluorophore-quencher pair peptide substrate
Type: biochemical
Condition: 30 min preincubation, kinetic reads over 30 min, 5Fam-KLTRAETV-K5Tamra substrate 15 μM; read-out: FXIa Kin Inh IC50
Response field label: string, one of satisfied (IC50 strictly below 1 nM) or not satisfied.

{"Compound": "O=C1OCCN1c1ccc(-c2cnc([C@@H]3CCC4CC(c5c(-n6cnnn6)ccc(Cl)c5F)=CC(=O)N43)[nH]2)cc1 (stereo partly drawn)", "Assay System": "Factor XIa (Homo sapiens (Human), UniProt P03951)", "Label Value": "not satisfied"}
{"Compound": "CC(C)(O)COc1nccc(-c2c[nH]c([C@@H]3CC[C@@H]4CC(c5c(-n6cnnn6)ccc(Cl)c5F)=CC(=O)N43)n2)c1F", "Assay System": "Factor XIa (Homo sapiens (Human), UniProt P03951)", "Label Value": "not satisfied"}
{"Compound": "O=C1C=C(c2c(-n3cnnn3)ccc(Cl)c2F)C[C@H]2CC[C@@H](c3ncc(-c4c[nH]c5ncncc45)[nH]3)N12", "Assay System": "Factor XIa (Homo sapiens (Human), UniProt P03951)", "Label Value": "satisfied"}
{"Compound": "C[C@H](C#N)c1nccc(-c2cnc([C@@H]3CCC4CC(c5c(-n6cnnn6)ccc(Cl)c5F)=CC(=O)N43)[nH]2)c1F (relative stereo)", "Assay System": "Factor XIa (Homo sapiens (Human), UniProt P03951)", "Label Value": "not satisfied"}
{"Compound": "O=C1C=C(c2c(-n3cnnn3)ccc(Cl)c2F)C[C@@H]2CC[C@@H](c3ncc(-c4ccnc([C@H](O)C(F)(F)F)c4F)[nH]3)N12 (single isomer, unassigned)", "Assay System": "Factor XIa (Homo sapiens (Human), UniProt P03951)", "Label Value": "not satisfied"}
{"Compound": "Nc1noc2ccc(-c3cnc([C@@H]4CC[C@@H]5CC(c6c(-n7cnnn7)ccc(Cl)c6F)=CC(=O)N54)[nH]3)cc12", "Assay System": "Factor XIa (Homo sapiens (Human), UniProt P03951)", "Label Value": "not satisfied"}

---

Assay System: human plasma kallikrein (Homo sapiens (Human), UniProt P03952)
Sequence (P03952 391-638): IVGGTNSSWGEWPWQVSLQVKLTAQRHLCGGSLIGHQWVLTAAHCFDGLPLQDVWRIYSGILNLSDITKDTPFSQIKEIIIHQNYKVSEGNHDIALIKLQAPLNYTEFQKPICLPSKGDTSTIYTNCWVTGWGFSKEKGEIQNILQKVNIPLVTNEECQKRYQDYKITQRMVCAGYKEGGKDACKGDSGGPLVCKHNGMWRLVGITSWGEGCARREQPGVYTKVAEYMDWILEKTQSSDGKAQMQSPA
Sequence (P03952 20-390 partner): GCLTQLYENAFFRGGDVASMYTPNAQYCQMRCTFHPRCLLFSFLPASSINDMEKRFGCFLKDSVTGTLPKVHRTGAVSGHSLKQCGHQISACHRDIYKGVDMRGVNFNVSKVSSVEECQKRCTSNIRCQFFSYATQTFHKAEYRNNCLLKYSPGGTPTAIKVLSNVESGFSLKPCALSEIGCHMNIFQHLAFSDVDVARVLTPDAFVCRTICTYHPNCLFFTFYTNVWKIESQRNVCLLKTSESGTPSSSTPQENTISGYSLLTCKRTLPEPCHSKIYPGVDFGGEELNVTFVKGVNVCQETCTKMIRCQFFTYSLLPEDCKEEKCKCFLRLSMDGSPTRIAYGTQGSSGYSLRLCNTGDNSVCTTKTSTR
Test Name: Kallikrein inhibition assay (FLINT) utilizing a quenched AMC peptide substrate
Type: biochemical
Condition: 30 min preincubation, kinetic reads over 30 min, Z-Gly-Pro-Arg-AMC substrate 50 μM; read-out: Kallikrein Kin Inh IC50
pIC50: −log10 of the molar value.
Each record here notes measured pIC50.
Endpoint: pIC50

{"Compound": "CC1(C)C[C@@H](c2ncc(-c3ccc(N)nc3F)[nH]2)N2C(=O)C=C(c3c(-n4cnnn4)ccc(Cl)c3F)C[C@H]21 (relative stereo)", "Meas Value": 7.90}
{"Compound": "O=C1C=C(c2c(-n3cnnn3)ccc(Cl)c2F)C[C@H]2CC[C@@H](c3ncc(-c4ccnc(OCC5(O)CC5)c4F)[nH]3)N12", "Meas Value": 8.42}
{"Compound": "NC(=O)c1cccc(-c2cnc([C@@H]3CC[C@@H]4CC(c5c(-n6cnnn6)ccc(Cl)c5F)=CC(=O)N43)[nH]2)c1F", "Meas Value": 8.82}
{"Compound": "NC(=O)c1sc(-c2c[nH]c([C@@H]3CC[C@@H]4CC(c5c(-n6cnnn6)ccc(Cl)c5F)=CC(=O)N43)n2)cc1F", "Meas Value": 7.56}
{"Compound": "O=C1C=C(c2cc(Cl)ccc2-n2cc(C(F)(F)F)nn2)C[C@H]2CC[C@@H](c3ncc(-c4ccnc(CO)c4F)[nH]3)N12 (relative stereo)", "Meas Value": 6.81}
{"Compound": "[2H]C([2H])(O)c1nccc(-c2cnc([C@@H]3CC[C@]4([2H])CC(c5c(-n6cnnn6)ccc(Cl)c5F)=CC(=O)N34)[nH]2)c1F (single isomer, unassigned)", "Meas Value": 7.47}
{"Compound": "O=C1C=C(c2c(-n3cnnn3)ccc(Cl)c2F)C[C@H]2CC[C@@H](c3ncc(-c4ccnc(C5COC5)c4F)[nH]3)N12", "Meas Value": 7.90}
{"Compound": "CNc1ccc(-c2cnc([C@@H]3CCC4CC(c5c(-n6cnnn6)ccc(Cl)c5F)=CC(=O)N43)[nH]2)c(F)n1 (stereo partly drawn)", "Meas Value": 8.13}
{"Compound": "CO[C@H]1C[C@@H](c2nc(-c3ccc(N)nc3F)c[nH]2)N2C(=O)C=C(c3c(-n4cnnn4)ccc(Cl)c3F)CC12 (stereo partly drawn)", "Meas Value": 6.68}
{"Compound": "Nc1cc(-c2cnc([C@@H]3CC[C@@H]4CC(c5c(-n6cnnn6)ccc(Cl)c5F)=CC(=O)N43)[nH]2)c(Cl)cn1", "Meas Value": 7.56}
{"Compound": "O=C1C=C(c2c(-n3cc(Cl)nn3)ccc(Cl)c2F)C[C@H]2CC[C@@H](c3nc(-c4cc[nH]c(=O)c4F)c[nH]3)N12", "Meas Value": 7.61}
{"Compound": "CCOC(=O)Nc1ncccc1-c1c[nH]c([C@@H]2CC[C@@H]3CC(c4c(-n5cnnn5)ccc(Cl)c4F)=CC(=O)N32)n1", "Meas Value": 6.82}
{"Compound": "O=C1C=C(c2c(-n3cnnn3)ccc(Cl)c2F)C[C@H]2CC[C@@H](c3ncc(-c4c[nH]cc4C(F)(F)F)[nH]3)N12", "Meas Value": 7.95}
{"Compound": "NC(=O)c1ccc(-c2nc([C@@H]3CC[C@H]4CC(c5c(-n6cc(C(F)(F)F)nn6)ccc(Cl)c5F)=CC(=O)N43)[nH]c2Cl)s1", "Meas Value": 8.82}
{"Compound": "NC(=O)c1ccc(-c2cnc([C@@H]3CC[C@@H]4CC(c5c(-n6cc(Cl)nn6)ccc(Cl)c5F)=CC(=O)N43)[nH]2)s1", "Meas Value": 8.11}
{"Compound": "C[C@H](CO)Oc1nccc(-c2cnc([C@@H]3CC[C@@H]4CC(c5c(-n6cnnn6)ccc(Cl)c5F)=CC(=O)N43)[nH]2)c1F (single isomer, unassigned)", "Meas Value": 8.31}
{"Compound": "O=C1C=C(c2c(-n3cnnn3)ccc(Cl)c2F)C[C@H]2CC[C@@H](c3ncc(-c4ccnc(C[C@H](O)C(F)(F)F)c4F)[nH]3)N12 (single isomer, unassigned)", "Meas Value": 7.48}
{"Compound": "O=C1C=C(c2c(-n3cnnn3)ccc(Cl)c2F)C[C@H]2CC[C@@H](c3ncc(-c4ccnc(C[C@@H](O)C(F)(F)F)c4F)[nH]3)N12 (single isomer, unassigned)", "Meas Value": 7.36}
{"Compound": "O=C1C=C(c2c(-n3cnnn3)ccc(Cl)c2F)CC2CC[C@@H](c3ncc(-c4cn[nH]c4Cl)[nH]3)N12 (stereo partly drawn)", "Meas Value": 7.72}
{"Compound": "CC(=O)N[C@H](C)c1ccc(-c2cnc([C@@H]3CCC4CC(c5c(-n6cnnn6)ccc(Cl)c5F)=CC(=O)N43)[nH]2)cc1 (stereo partly drawn)", "Meas Value": 6.48}
{"Compound": "O=C(Nc1ccncc1-c1c[nH]c([C@@H]2CCC3CC(c4c(-n5cnnn5)ccc(Cl)c4F)=CC(=O)N32)n1)C1CC1 (stereo partly drawn)", "Meas Value": 8.35}
{"Compound": "CNc1ccc(-c2cnc([C@@H]3CC[C@H]4CC(c5c(-n6cnnn6)ccc(Cl)c5F)=CC(=O)N43)[nH]2)c(F)n1", "Meas Value": 8.13}
{"Compound": "O=C(Nc1cnccc1-c1c[nH]c([C@@H]2CCC3CC(c4c(-n5cnnn5)ccc(Cl)c4F)=CC(=O)N32)n1)C1CC1 (stereo partly drawn)", "Meas Value": 9.05}
{"Compound": "Nc1ccc(-c2cnc([C@@H]3CC[C@H]4CC(c5c(-n6cnnn6)ccc(Cl)c5F)=CC(=O)N43)[nH]2)c(F)n1", "Meas Value": 7.96}

Reference source for all entries: patent US20230295157A1
